Assay: chemical genetic growth profiling, strain panel (AID 1159580);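 further: tested at 20 µM; growth read once vehicle control cultures reached saturation at 30 °C; lower values mean less growth of the strain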
Settings: S. cerevisiae deletion strains, growth OD, locus YDL035C, strain GPR1
In all, about 5,500 compounds went through this assay and about 2,000 (36%) were called active. Another 18% or so got no clear call; they are omitted. No stated cut-off is given here; in the data, active means normalized growth mostly below about 0.91 (no sharp cut-off); inconclusive means no clear call, values can overlap the other calls; inactive means mostly above about 0.92. Some of the results follow.
Hi! Could you answer with just one of these? t for active, f for inactive

Solved cases (6 shown):
>>> class("C[C@@H]1CC[C@@]2(NC1)O[C@H]1C[C@H]3C4CC=C5C[C@@H](O)CC[C@]5(C)C4CC[C@]3(C)C1[C@@H]2C (some centres not stated)")
"t"
>>> class("COc1ccc2ccc(=O)oc2c1")
"f"
>>> class("COc1cccc2c(C)cc(=O)[nH]c12")
"f"
>>> class("C[C@@H]1CC[C@@]2(OC1)OC1CC3C4CC=C5C[C@@H](O)CC[C@]5(C)C4CC[C@]3(C)C1[C@@H]2C (some centres not stated)")
"f"
>>> class("C[C@@H]1CC[C@@]2(OC1)O[C@H]1CC3C4CC[C@H]5C[C@@H](O)CC[C@]5(C)C4CC[C@]3(C)[C@H]1[C@@H]2C (some centres not stated)")
"f"
>>> class("Cc1[nH]ccc2c1[nH]c1cc(=O)ccc12")
"f"

[ask] Hi, sorry to bother you, what did the test record for CC1CCC2(OC1)OC1CC3C4CC[C@H]5C[C@@H](O)CC[C@]5(C)C4CC(=O)[C@]3(C)C1C2C (some centres not stated) ?
[reply] f
